Experiment: Pharmacokinetic study in mice
Format: in vivo
Details: male, ICR, mouse, plasma, IP 10 mg/kg, n = 3
readout: Cmax (ng/mL)
Report the figure in ng/mL without appending any unit label.

What does the data say about its Cmax? Entry: CCCC(=O)c1c(O)c(CC2=C(O)C(C)(C)C(O)=C(C(C)=O)C2=O)c(O)c(Cc2c(O)c(CC3=C(O)C(C)(C)C(O)=C(C(C)=O)C3=O)c(O)c(C(=O)CCC)c2O)c1O [dryocrassin ABBA, Dryocrassin ABBA]
12800

----------
Test: Plasma stability, rat
Format: in vitro ADME
Details: 37 °C
Method: Animal plasma (Innovative Research, Inc., Novi, MI, USA) and test compounds (5 μM) were incubated at 37 °C for 4 h. To prevent the reaction, cold acetonitrile was added.
readout: remaining at 4 h, 5 μM (%)
Report the figure in % without appending any unit label.

What does the data say about its remaining at 4 h, 5 μM? Entry: CCCC(=O)c1c(O)c(CC2=C(O)C(C)(C)C(O)=C(C(C)=O)C2=O)c(O)c(Cc2c(O)c(CC3=C(O)C(C)(C)C(O)=C(C(C)=O)C3=O)c(O)c(C(=O)CCC)c2O)c1O
67

----------
Assay: Pharmacokinetic study in mice
Format: in vivo
Conditions: male, ICR, mouse, plasma, PO 10 mg/kg, n = 3, read-out: T1/2 (converted)
readout: half-life (h)
Report the figure in h without appending any unit label.

What does the data say about its half-life? Entry: CCCC(=O)c1c(O)c(CC2=C(O)C(C)(C)C(O)=C(C(C)=O)C2=O)c(O)c(Cc2c(O)c(CC3=C(O)C(C)(C)C(O)=C(C(C)=O)C3=O)c(O)c(C(=O)CCC)c2O)c1O
12.6

----------
Test: Pharmacokinetic study in mice
Type: in vivo
Conditions: male, ICR, mouse, plasma, IP 10 mg/kg, n = 3
readout: Tmax (h)
Report the figure in h without appending any unit label.

What does the data say about its Tmax? Entry: CCCC(=O)c1c(O)c(CC2=C(O)C(C)(C)C(O)=C(C(C)=O)C2=O)c(O)c(Cc2c(O)c(CC3=C(O)C(C)(C)C(O)=C(C(C)=O)C3=O)c(O)c(C(=O)CCC)c2O)c1O [dryocrassin ABBA, Dryocrassin ABBA]
1.17

----------
Experiment: Pharmacokinetic study in mice
Format: in vivo
Settings: male, ICR, mouse, plasma, PO 10 mg/kg, n = 3
readout: Cmax (ng/mL)
Report the figure in ng/mL without appending any unit label.

What does the data say about its Cmax? Entry: CCCC(=O)c1c(O)c(CC2=C(O)C(C)(C)C(O)=C(C(C)=O)C2=O)c(O)c(Cc2c(O)c(CC3=C(O)C(C)(C)C(O)=C(C(C)=O)C3=O)c(O)c(C(=O)CCC)c2O)c1O
3640

----------
Test: Pharmacokinetic study in mice
Format: in vivo
Conditions: male, ICR, mouse, plasma, other: intraperitoneal and oral (range over both arms), in vivo, span over IP and PO 10 mg/kg (abstract), read-out: half-life
readout: half-life

What does the data say about its half-life? Entry: CCCC(=O)c1c(O)c(CC2=C(O)C(C)(C)C(O)=C(C(C)=O)C2=O)c(O)c(Cc2c(O)c(CC3=C(O)C(C)(C)C(O)=C(C(C)=O)C3=O)c(O)c(C(=O)CCC)c2O)c1O
330 to 756 min

----------
Assay: Plasma stability, human
Assay type: in vitro ADME
Conditions: 37 °C, read-out: Plasma Stability (% Remaining), Hum
readout: remaining at 4 h, 5 μM (%)
Report the figure in % without appending any unit label.

What does the data say about its remaining at 4 h, 5 μM? Entry: CCCC(=O)c1c(O)c(CC2=C(O)C(C)(C)C(O)=C(C(C)=O)C2=O)c(O)c(Cc2c(O)c(CC3=C(O)C(C)(C)C(O)=C(C(C)=O)C3=O)c(O)c(C(=O)CCC)c2O)c1O
29.7
